- Experimental Target: recombinant human ACC2 (Homo sapiens, UniProt O00763)
- Construct: a full length Cytomax clone of ACC2 was purchased from Cambridge Bioscience Limited; made in house; host or cells: CHO cells (tetracycline induction, pcDNA5 FRT TO-TOPO); purified on a Softlink Soft Release Avidin column
- Sequence (O00763 whole entry): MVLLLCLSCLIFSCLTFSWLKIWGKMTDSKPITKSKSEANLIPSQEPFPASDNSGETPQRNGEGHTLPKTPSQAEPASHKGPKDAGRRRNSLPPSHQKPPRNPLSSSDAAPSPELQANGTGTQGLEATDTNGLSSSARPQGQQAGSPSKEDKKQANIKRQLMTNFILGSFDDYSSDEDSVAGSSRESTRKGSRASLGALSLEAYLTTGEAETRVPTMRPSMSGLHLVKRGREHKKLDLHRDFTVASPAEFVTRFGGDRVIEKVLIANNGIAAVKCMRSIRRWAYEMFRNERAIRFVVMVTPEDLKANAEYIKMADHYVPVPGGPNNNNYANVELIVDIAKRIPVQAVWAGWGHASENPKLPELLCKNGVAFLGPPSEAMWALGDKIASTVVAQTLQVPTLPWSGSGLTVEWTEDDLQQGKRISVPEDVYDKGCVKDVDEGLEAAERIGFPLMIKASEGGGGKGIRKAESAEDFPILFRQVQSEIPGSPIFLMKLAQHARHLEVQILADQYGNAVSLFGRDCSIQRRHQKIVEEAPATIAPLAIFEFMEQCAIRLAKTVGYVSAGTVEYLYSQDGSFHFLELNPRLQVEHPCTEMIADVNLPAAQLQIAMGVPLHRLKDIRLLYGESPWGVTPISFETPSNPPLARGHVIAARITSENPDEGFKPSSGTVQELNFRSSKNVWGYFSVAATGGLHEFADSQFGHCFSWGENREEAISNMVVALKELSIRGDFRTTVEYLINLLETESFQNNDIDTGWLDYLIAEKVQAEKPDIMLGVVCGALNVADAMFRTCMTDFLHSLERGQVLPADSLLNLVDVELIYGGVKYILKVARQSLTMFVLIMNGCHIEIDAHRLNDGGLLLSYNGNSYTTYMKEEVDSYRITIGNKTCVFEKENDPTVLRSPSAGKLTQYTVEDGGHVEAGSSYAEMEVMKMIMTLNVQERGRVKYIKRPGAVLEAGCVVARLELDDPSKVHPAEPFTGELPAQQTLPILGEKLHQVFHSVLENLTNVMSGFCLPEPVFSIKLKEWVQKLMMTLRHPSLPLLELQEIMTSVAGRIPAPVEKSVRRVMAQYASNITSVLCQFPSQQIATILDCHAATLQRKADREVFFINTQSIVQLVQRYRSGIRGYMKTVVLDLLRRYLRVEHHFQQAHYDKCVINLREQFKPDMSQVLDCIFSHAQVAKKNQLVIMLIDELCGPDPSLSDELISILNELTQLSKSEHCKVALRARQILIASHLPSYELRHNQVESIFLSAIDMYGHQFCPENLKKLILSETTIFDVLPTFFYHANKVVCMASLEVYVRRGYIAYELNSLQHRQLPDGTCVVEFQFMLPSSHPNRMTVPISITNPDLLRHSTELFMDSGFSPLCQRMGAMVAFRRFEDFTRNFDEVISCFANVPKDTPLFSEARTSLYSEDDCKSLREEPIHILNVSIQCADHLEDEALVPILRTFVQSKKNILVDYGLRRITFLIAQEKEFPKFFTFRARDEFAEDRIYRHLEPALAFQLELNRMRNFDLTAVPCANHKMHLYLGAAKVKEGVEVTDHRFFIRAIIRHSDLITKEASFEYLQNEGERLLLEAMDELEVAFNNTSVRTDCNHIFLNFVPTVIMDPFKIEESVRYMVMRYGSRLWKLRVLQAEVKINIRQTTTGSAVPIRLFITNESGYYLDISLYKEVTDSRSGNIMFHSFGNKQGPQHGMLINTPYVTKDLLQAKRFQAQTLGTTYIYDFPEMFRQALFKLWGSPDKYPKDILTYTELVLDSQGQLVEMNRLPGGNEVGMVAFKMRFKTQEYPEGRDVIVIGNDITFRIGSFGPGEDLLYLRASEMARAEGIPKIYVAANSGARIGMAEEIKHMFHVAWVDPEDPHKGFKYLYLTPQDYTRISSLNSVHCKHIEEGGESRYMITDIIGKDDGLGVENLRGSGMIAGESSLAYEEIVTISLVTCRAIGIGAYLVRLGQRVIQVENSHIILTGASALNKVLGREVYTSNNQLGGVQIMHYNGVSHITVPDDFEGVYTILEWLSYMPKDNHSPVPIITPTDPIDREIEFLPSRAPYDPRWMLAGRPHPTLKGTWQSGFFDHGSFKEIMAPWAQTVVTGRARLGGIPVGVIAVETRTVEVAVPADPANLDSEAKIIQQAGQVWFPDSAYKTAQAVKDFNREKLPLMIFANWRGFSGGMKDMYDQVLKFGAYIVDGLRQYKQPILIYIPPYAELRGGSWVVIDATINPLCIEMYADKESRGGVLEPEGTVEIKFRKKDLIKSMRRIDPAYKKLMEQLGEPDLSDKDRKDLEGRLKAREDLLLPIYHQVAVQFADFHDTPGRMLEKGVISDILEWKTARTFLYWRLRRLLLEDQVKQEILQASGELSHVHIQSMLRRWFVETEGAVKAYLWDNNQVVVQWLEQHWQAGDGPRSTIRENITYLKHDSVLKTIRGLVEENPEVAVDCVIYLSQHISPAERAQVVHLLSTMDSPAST
- Assay: Measurement of human ACC2 inhibition (recombinant hACC2 Transcreener ADP detection FP assay)
- Type: biochemical
- Condition Context: recombinant hACC2 transcreener assay; read-out: rhACC2 IC50
Attribute Measured: IC50 (nM)

See these solved cases before continuing.
>  <Molecule>
CC(C)(C)n1cc2c(n1)C(=O)CC1(CCN(C(=O)c3ccc4ocnc4c3)CC1)O2 [9.002]

>  <Units Of Measure>
nM

>  <IC50>
291

$$$$
>  <Molecule>
Cc1n[nH]c2ccc(C(=O)N3CCC4(CC3)CC(=O)c3nn(C(C)(C)C)c(C)c3O4)cc12 [1.090]

>  <Units Of Measure>
nM

>  <IC50>
23

$$$$
>  <Molecule>
CCn1cc2c(n1)C(=O)CC1(CCN(C(=O)c3cc(C)c4[nH]ncc4c3)CC1)O2 [1.025]

>  <Units Of Measure>
nM

>  <IC50>
54

$$$$
>  <Molecule>
Cc1n[nH]c2c(C)cc(C(=O)N3CCC4(CC3)CC(=O)c3nn(C5CCOC5)cc3O4)cc12 (centres unmarked) [1.016]

>  <Units Of Measure>
nM

>  <IC50>
22

$$$$

1: CCn1nc2c(c1C)OC1(CCN(C(=O)c3cc(Cl)c4[nH]ncc4c3)CC1)CC2=O [1.061]
2: CCc1n[nH]c2ccc(C(=O)N3CCC4(CC3)CC(=O)c3nn(CC)cc3O4)cc12 [1.093]
3: Cn1ccc2ccc(C(=O)N3CCC4(CC3)CC(=O)c3nn(C(C)(C)C)cc3O4)cc21 [18.001]
4: CCc1cc(C(=O)N2CCC3(CC2)CC(=O)c2nn(C)cc2O3)cc2cn[nH]c12 [1.059]
Sort these molecules on IC50 so the largest reading comes first. Return the labels ranked in the requested order, please.
4, 1, 2, 3

----------
- Experimental Target: recombinant human ACC2 (Homo sapiens)
- Construct: a full length Cytomax clone of ACC2 was purchased from Cambridge Bioscience Limited; made in house; host or cells: CHO cells (tetracycline induction, pcDNA5 FRT TO-TOPO); purified on a Softlink Soft Release Avidin column
- Assay: Measurement of human ACC2 inhibition (recombinant hACC2 Transcreener ADP detection FP assay)
- Format: biochemical
- Condition Context: recombinant hACC2 transcreener assay; read-out: rhACC2 IC50
Attribute Measured: IC50 (nM)

>  <Smiles Representation>
COc1cc(C(=O)N2CCC3(CC2)CC(=O)c2nn(C(C)C)cc2O3)cc2cn[nH]c12

>  <Value Measured>
17

$$$$
>  <Smiles Representation>
CCn1nc2c(c1C)OC1(CCN(C(=O)c3cc(C)c4[nH]nc(C)c4c3)CC1)CC2=O

>  <Value Measured>
11

$$$$
>  <Smiles Representation>
CC(C)(C)n1cc2c(n1)C(=O)CC1(CCN(C(=O)c3ccc4c(c3)OCC(=O)N4)CC1)O2

>  <Value Measured>
49

$$$$
>  <Smiles Representation>
CCc1cc(C(=O)N2CCC3(CC2)CC(=O)c2nn(CC)cc2O3)cc2c(C)n[nH]c12

>  <Value Measured>
36

$$$$

P: Cc1cc(C(=O)N2CCC3(CC2)CC(=O)c2nn(C4CCCCC4)cc2O3)cc2cn[nH]c12
Q: COc1c(C(=O)N2CCC3(CC2)CC(=O)c2nn(C(C)(C)C)cc2O3)ccc2cn[nH]c12
Of P and Q , whose reported IC50 is numerically smaller? Refer to your chosen item by its label in the answer.
Q
(Q: 27 nM, P: 60 nM)

A: CCn1nc2c(c1C)OC1(CCN(C(=O)c3ccc4c(c3)OCC(=O)N4)CC1)CC2=O
B: CCn1c(C)nc2cc(C(=O)N3CCC4(CC3)CC(=O)c3nn(C(C)(C)C)cc3O4)ccc21
Decide: A or B , by lowest recorded IC50. Record your answer as the label of the chosen record.
B
(B: 52 nM, A: 861 nM)

----------
- Test system: malonyl-CoA levels in muscle tissue
- Assay: Acute in vivo assessment of ACC inhibition: malonyl-CoA levels in muscle tissue (quadriceps)
- Set-up: species or system male Sprague-Dawley Rats
- Condition Context: dose 1 mg/kg; relative to chow-fed vehicle control group; % decrease +/- SEM
Attribute Measured: Percent decrease in Muscle Malonyl-CoA (quadriceps)

Known Percent decrease in Muscle Malonyl-CoA (quadriceps) results, listed for orientation:
>  <Smiles Representation>
CC(C)(C)n1cc2c(n1)C(=O)CC1(CCN(C(=O)c3ccc4[nH]ncc4c3)CC1)O2

>  <Value Measured>
2.34 (5.44) %

$$$$
>  <Smiles Representation>
CCn1cc2c(n1)C(=O)CC1(CCN(C(=O)c3cc(C)c4[nH]nc(C)c4c3)CC1)O2

>  <Value Measured>
−3.72 (8.87) %

$$$$
>  <Smiles Representation>
Cc1n[nH]c2c(C)cc(C(=O)N3CCC4(CC3)CC(=O)c3nn(C(C)(C)C)cc3O4)cc12

>  <Value Measured>
31.53 (3.58) %

$$$$
>  <Smiles Representation>
Cc1cc(C(=O)N2CCC3(CC2)CC(=O)c2nn(C(C)(C)C)cc2O3)cc2cn[nH]c12

>  <Value Measured>
29.90 (5.21) %

$$$$

Below: the item to evaluate.
Give the measured Percent decrease in Muscle Malonyl-CoA (quadriceps) for "CCn1nc2c(c1C)OC1(CCN(C(=O)c3cc(C)c4[nH]nc(C)c4c3)CC1)CC2=O"
5.69 (8.73) %

----------
- Experimental Target: recombinant human ACC2 (Homo sapiens)
- Construct: a full length Cytomax clone of ACC2 was purchased from Cambridge Bioscience Limited; made in house; host or cells: CHO cells (tetracycline induction, pcDNA5 FRT TO-TOPO); purified on a Softlink Soft Release Avidin column
- Assay: Measurement of human ACC2 inhibition (recombinant hACC2 Transcreener ADP detection FP assay)
- Assay type: biochemical
- Condition Context: recombinant hACC2 transcreener assay; read-out: rhACC2 IC50
- Procedure: [3] Measurement of human ACC2 inhibition. Human ACC2 inhibition was measured using purified recombinant human ACC2 (hrACC2). […] The ACC2 was expressed in CHO cells by tetracycline induction and harvested in 5 liters of DMEM/F12 with glutamine, biotin, hygromycin and blasticidin with 1 μg/mL tetracycline (Invitrogen, Carlsbad, Calif.). The conditioned medium containing ACC2 was then applied to a Softlink Soft Release Avidin column (Promega, Madison, Wis.) and eluted with 5 mM biotin. […]
pIC50: −log10 of the molar value.
Attribute Measured: pIC50

>  <Molecule>
Cc1n[nH]c2c(C)cc(C(=O)N3CCC4(CC3)CC(=O)c3nn(CC(C)C)c(C)c3O4)cc12 [1.129]

>  <pIC50>
8.30

$$$$
>  <Molecule>
CCn1nc2c(c1C)OC1(CCN(C(=O)c3cc(C)c4sncc4c3)CC1)CC2=O [7.008]

>  <pIC50>
7.03

$$$$

P: CCn1nc2c(c1C)OC1(CCN(C(=O)c3ccc4c(cnn4C)c3)CC1)CC2=O [1.112]
Q: Cc1noc2cc(C(=O)N3CCC4(CC3)CC(=O)c3nn(C(C)C)cc3O4)ccc12 [23.001]
Would you let me know which has the greater pIC50 value, P or Q ? Reply briefly: the label of your chosen item.
P

----------
- Experimental Target: recombinant human ACC2 (Homo sapiens)
- Construct: a full length Cytomax clone of ACC2 was purchased from Cambridge Bioscience Limited; made in house; host or cells: CHO cells (tetracycline induction, pcDNA5 FRT TO-TOPO); purified on a Softlink Soft Release Avidin column
- Assay: Measurement of human ACC2 inhibition (recombinant hACC2 Transcreener ADP detection FP assay)
- Format: biochemical
- Condition Context: recombinant hACC2 transcreener assay; read-out: rhACC2 IC50
Attribute Measured: IC50 (nM)

Example cases with answers are listed next.
>  <Molecule>
CCn1cc2c(n1)C(=O)CC1(CCN(C(=O)c3cc(OC)c4[nH]nc(C)c4c3)CC1)O2

>  <IC50 (nM)>
12

$$$$
>  <Molecule>
Cc1cc(C(=O)N2CCC3(CC2)CC(=O)c2nn(C(C)(C)C)cc2O3)cc2[nH]cnc12

>  <IC50 (nM)>
6

$$$$

A: CCc1n[nH]c2c(OC)cc(C(=O)N3CCC4(CC3)CC(=O)c3nn(C5CCCC5)cc3O4)cc12
B: CC(C)(C)n1cc2c(n1)C(=O)CC1(CCN(C(=O)c3ccc4[nH]c(=O)oc4c3)CC1)O2
C: CCCn1cc2c(n1)C(=O)CC1(CCN(C(=O)c3ccc4[nH]nc(C)c4c3)CC1)O2
D: Cc1c2c(nn1C)C(=O)CC1(CCN(C(=O)c3ccc4[nH]ncc4c3)CC1)O2
E: CC(C)n1cc2c(n1)C(=O)CC1(CCN(C(=O)c3cc(Cl)c4cn[nH]c4c3)CC1)O2
Form: Sort by [IC50] Order [ ascending ] Sort the labels as requested; that list is your answer.
A, E, B, C, D
(A: 7 nM, E: 13 nM, B: 28 nM, C: 53 nM, D: 713 nM)

a: CC(C)n1cc2c(n1)C(=O)CC1(CCN(C(=O)c3ccc4ncn(C)c4c3)CC1)O2
b: Cc1cc(C(=O)N2CCC3(CC2)CC(=O)c2nn(C(C)C)cc2O3)cc2[nH]cnc12
Recorded IC50 values differ for a and b ; which one is higher? State the label of the item chosen.
a
